# protocolDetails: Vmax was determined
# Assay type: ADME
readout: Vmax (nmol/min/mg)

>  <compound>
NC[C@]1(O)CCC2CCCCC2C1 (stereo partly drawn)

>  <Vmax (nmol/min/mg)>
0.024

$$$$
>  <compound>
NCC1(O)CCCCCCCCCC1

>  <Vmax (nmol/min/mg)>
0.04

$$$$
>  <compound>
NC[C@@]1(O)CCC2CCCCC2C1 (stereo partly drawn)

>  <Vmax (nmol/min/mg)>
0.03

$$$$

Reference source for all entries: ChEMBL document CHEMBL1121960
